A collection of compounds and their measured EC50
- SYSTEM: E. coli K12 PBP3 (Escherichia coli, UniProt P0AD68)
- Sequence (P0AD68 1-577): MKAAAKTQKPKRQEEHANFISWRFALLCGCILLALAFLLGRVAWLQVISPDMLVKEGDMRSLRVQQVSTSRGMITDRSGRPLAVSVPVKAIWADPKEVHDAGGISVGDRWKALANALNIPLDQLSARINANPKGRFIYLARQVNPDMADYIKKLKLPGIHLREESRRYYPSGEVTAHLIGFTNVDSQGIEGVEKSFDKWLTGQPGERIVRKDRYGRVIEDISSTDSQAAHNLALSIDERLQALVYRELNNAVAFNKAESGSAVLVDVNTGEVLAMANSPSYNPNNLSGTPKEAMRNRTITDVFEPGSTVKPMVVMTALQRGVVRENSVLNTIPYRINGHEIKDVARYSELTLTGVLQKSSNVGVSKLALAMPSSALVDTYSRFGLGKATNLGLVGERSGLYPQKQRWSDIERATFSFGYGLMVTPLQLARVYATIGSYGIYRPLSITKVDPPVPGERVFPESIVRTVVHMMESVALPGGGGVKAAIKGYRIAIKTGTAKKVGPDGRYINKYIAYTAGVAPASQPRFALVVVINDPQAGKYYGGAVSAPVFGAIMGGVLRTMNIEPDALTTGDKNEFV
- ASSAY NOTES: biochemical

COMPOUND: CCN1CCN(C(=O)N[C@@H](C(=O)N[C@H]2Cc3cccc(C(=O)O)c3OB2O)c2ccc(C(=O)O)cc2Cl)C(=O)C1=O (single isomer, unassigned)
EC50: < 30 µM

COMPOUND: Nc1nc(C(NC(=O)N2CCN(CCNC(=O)c3ccc(O)c(O)c3Cl)C(=O)C2=O)C(=O)N[C@H]2Cc3ccc(F)c(C(=O)O)c3OB2O)c(F)s1 (stereo partly drawn)
EC50: < 30 µM

COMPOUND: NC(=O)c1ccc(C(NC(=O)N2CCN(CCF)C(=O)C2=O)C(=O)N[C@H]2Cc3cccc(C(=O)O)c3OB2O)cc1O (stereo partly drawn)
EC50: < 30 µM

Endpoint output: EC50 of `NCCCN1CCN(C(=O)N[C@@H](C(=O)N[C@H]2Cc3ccc(F)c(C(=O)O)c3OB2O)c2ncc(O)cc2F)C(=O)C1=O` . Value?
< 30 µM

Endpoint output: EC50 of NCCCN1CCN(C(=O)NC(C(=O)N[C@H]2Cc3cccc(C(=O)O)c3OB2O)c2ccc(C(N)=O)c(O)c2)C(=O)C1=O (stereo partly drawn) . Value?
30 to 500 µM

Endpoint output: EC50 of CCN1CCN(C(=O)NC(C(=O)N[C@H]2Cc3ccc(F)c(C(=O)O)c3OB2O)c2ccc(C(=O)O)cc2)C(=O)C1=O (stereo partly drawn) . Value?
< 30 µM
